- TARGET OF ASSAY: ENT1 (Mus musculus)
- Sequence (Q9JIM1 1-460): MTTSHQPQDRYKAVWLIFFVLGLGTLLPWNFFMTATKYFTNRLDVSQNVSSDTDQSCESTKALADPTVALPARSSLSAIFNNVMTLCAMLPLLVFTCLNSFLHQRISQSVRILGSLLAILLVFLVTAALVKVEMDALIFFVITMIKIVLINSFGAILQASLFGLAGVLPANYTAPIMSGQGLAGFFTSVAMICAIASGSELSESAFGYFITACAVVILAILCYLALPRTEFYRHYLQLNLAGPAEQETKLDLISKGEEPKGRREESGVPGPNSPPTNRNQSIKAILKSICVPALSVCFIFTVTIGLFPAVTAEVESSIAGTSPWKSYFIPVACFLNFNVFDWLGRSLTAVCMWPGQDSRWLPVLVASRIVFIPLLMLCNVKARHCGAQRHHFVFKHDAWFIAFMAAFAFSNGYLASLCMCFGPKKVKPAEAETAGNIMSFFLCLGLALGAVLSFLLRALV
- Assay type: binding
- ASSAY CONTEXT: read-out: KD (affinity); WT littermates of zQ175 mice, striatum
ATTRIBUTE MEASURED: Kd (nM)
The reply should be a number in nM, with the unit left off.

Reported Kd for ENT1 (Mus musculus), given O=[N+]([O-])c1ccc(CSc2ncnc3c2ncn3[C@@H]2O[C@H](CO)[C@@H](O)[C@H]2O)cc1 [[^3H]NBTI, [^3H]-S-(4-Nitrobenzyl)-6-thioinosine] ?
0.11
